Provenance of the data: ChEMBL document CHEMBL3507680

Assay: Human HepG2 cell viability assay in 384 well format
Assay type: toxicity, cell-based
Parameters: dose 125 nL, time 70.5 hour; concentration not given beside the values
Settings: HepG2 cells, read-out: Inhibition
# reported cytotoxicity at 70.5 h; entries follow
measure: cytotoxicity at 70.5 h (%)

>>> numericresult("CN(CC(=O)NC1CC1)C(=O)c1csc(Br)c1")
-8.41
>>> numericresult("Cc1ccccc1C(=O)N1Cc2c(Cn3ccnc3)nn(C)c2C1")
-9.48
>>> numericresult("CC(O)CN1CCN(Cc2coc(-c3ccccc3Cl)n2)CC1 (configuration not stated)")
-4.11
>>> numericresult("Cc1cc(C)nc(C2CCCN2c2ccnc(C)n2)n1 (configuration not stated)")
-0.201
>>> numericresult("CN(CCNC(=O)NCc1ccncc1)C1CCCC1")
-18
>>> numericresult("c1ncn(CC2CCCCN2Cc2csc(-c3ccsc3)n2)n1 (configuration not stated)")
-7.71
>>> numericresult("Cc1cc(NCC2CCCO2)cc(=O)n1C (configuration not stated)")
-9.63
>>> numericresult("CCc1cc(C(=O)N2CCC3(CCCN(CC4CC4)C3=O)C2)cs1 (configuration not stated)")
6.71
>>> numericresult("CNC(=O)C1CN(Cc2cc(C)on2)CCN(C(C)=O)C1 (configuration not stated)")
-9.11
>>> numericresult("COc1cc(CNC(=O)COC2CCCC2)ccc1O")
-4.4
>>> numericresult("COCC1CN(CCc2ccc(OC)c(OC)c2)Cc2c1cnn2C (configuration not stated)")
-8.2
>>> numericresult("CNC(=O)[C@H]1C[C@@H]2CN(Cc3ccc(OC)cc3)C[C@H]1O2")
-4.08

====

Assay: Human HepG2 cell viability assay in 384 well format
Type: toxicity, cell-based
Set-up: dose 125 nL, time 70.5 hour; concentration not given beside the values
Settings: HepG2 cells, read-out: Inhibition
measure: cytotoxicity at 70.5 h (%)

>>> numericresult("COCCc1noc(CN(C)c2nc(C)nc(C)c2C)n1")
25.3
>>> numericresult("Cc1ccc(OCc2cccc(C(=O)N(C)C(C)CC#N)c2)cn1 (centres undefined)")
0.55
>>> numericresult("Cc1cc(NC(C)c2nnn[nH]2)n2nc(C)c(C)c2n1 (centres undefined)")
5.16
>>> numericresult("O=C(CCCc1nnc(-c2ccccc2)o1)N1CCN(C2CC2)CC1")
0.0439
>>> numericresult("Cc1cccc(CN2C[C@H](NS(C)(=O)=O)[C@@H]3OCCC[C@@H]32)n1")
4.73
>>> numericresult("CN(CC(=O)N1CCCC1)C(=O)c1ccccc1F")
-13.9
>>> numericresult("COc1cc(F)ccc1CC(=O)N1CC[C@H]2C(=O)NCCO[C@H]2C1")
0.421
>>> numericresult("O=C(c1ccnn1COc1ccc(Cl)cc1)N1CCOCC1")
-6.03
>>> numericresult("O=C(CCN1CCCC(CO)(CC2CC2)C1)NCc1cccc(Cl)c1 (centres undefined)")
-7.94
>>> numericresult("CCCSc1ncccc1C(=O)NCc1ccc(S(N)(=O)=O)cc1")
-4.05
>>> numericresult("CC(NCc1ccc(Cl)o1)c1nnc2n1CCCC2 (centres undefined)")
9.09
>>> numericresult("CN1CCCN(C(=O)c2ccn3ccnc3c2)CC1")
6.21
>>> numericresult("Cc1cc(C(=O)N2C[C@H](CO)C[C@H](CN3CCOCC3)C2)cnc1C")
14.5
>>> numericresult("Cn1cccc1C(=O)N1CCC2(CC1)CC(N1CCOCC1)C2")
-12.5
>>> numericresult("Cn1cccc1C(=O)N1CC[C@H]2[C@H]1CCN2CC1CC1")
-0.69
>>> numericresult("O=C1COC2(CCN(C(=O)c3ccoc3)CC2)CN1Cc1ccccn1")
-0.827
>>> numericresult("Cc1n[nH]c(C)c1NC(=O)CN1CCN(c2nccs2)C(C)C1 (centres undefined)")
-1.01
>>> numericresult("O=C(NCC(Cc1cccc(F)c1)N1CCCC1=O)c1ccc(=O)[nH]n1 (centres undefined)")
1.13
>>> numericresult("CN1CCN(C2CCN(Cc3cn4ccccc4n3)CC2)C1=O")
19.5
>>> numericresult("O=C(C1CC=CC1)N1CCC2(CCC(=O)N2Cc2cccc(F)c2)CC1")
2.09
>>> numericresult("Cc1noc(C2CN(S(C)(=O)=O)Cc3ccnn3C2)n1 (centres undefined)")
-7.77
>>> numericresult("COC(=O)c1ccc(CNC(C)c2ccc(S(C)(=O)=O)cc2)cc1 (centres undefined)")
-1.14
>>> numericresult("O=C(Cc1cn2ccsc2n1)N1CCOCC(O)(CN2CCCC2)C1 (centres undefined)")
-4.72
>>> numericresult("COCC1CN(C(=O)c2cccc(C)n2)Cc2nccn2C1 (centres undefined)")
-10.2
